The compounds listed here are annotated with their Avr FF/Renilla from DMSO.
# Tested on: SERPINE1prom-Luc reporter in NAMEC8 cells
# Assay Details: Dual-Glo luciferase assay of SERPINE1prom-Luc reporter (FF/Ren)
# Format: cell-based, human
# Run Conditions: primary screen; NAMEC8-SERPINE1prom-Luc cells grown 3 days with compound; relative to DMSO
Assay Endpoint: Avr FF/Renilla from DMSO

Compound | Assay Endpoint | Observed
COc1ccc(S(=O)(=O)N(CCO)c2ccccc2CN(C)C/C=C/c2ccc(Cl)cc2)cc1 [KN-93] | Avr FF/Renilla from DMSO | 0.59
CCO.N#CC(=C(/N)Sc1ccccc1N)/C(C#N)=C(\N)Sc1ccccc1N [U0126-EtOH] | Avr FF/Renilla from DMSO | 0.62
CCCCCCCCc1ccc(-c2ccc(C(=O)O)cc2)cc1 [AC-55649] | Avr FF/Renilla from DMSO | 0.59
Cn1cc(C2=C(c3ccc(Cl)cc3Cl)C(=O)NC2=O)c2ccccc21 [SB 216763] | Avr FF/Renilla from DMSO | 0.56
Cc1cccc(-c2[nH]c(C(C)(C)C)nc2-c2ccc3nccnc3c2)n1 [SB-525334] | Avr FF/Renilla from DMSO | 0.37
